# system-name: Glutamate receptor ionotropic, AMPA (Rattus norvegicus, UniProt P19490+P19491+P19492+P19493)
# experimental-details: Agonistic activity electrophysiologically against AMPA using rat cortical wedge preparation
measure-name: EC50

Below, 4 compounds whose answers are already recorded.
>>> value_observed("CCOc1noc(-c2nc[nH]n2)c1CC(N)C(=O)O (stereo not given)")
"> 100 µM"
>>> value_observed("Cn1oc(C(=O)O)c(CC(N)C(=O)O)c1=O (stereo not given)")
"> 1000 µM"
>>> value_observed("CCn1oc(C(=O)O)c(CC(N)C(=O)O)c1=O (stereo not given)")
"> 500 µM"
>>> value_observed("NC(Cc1c(O)noc1C(=O)O)C(=O)O (stereo not given)")
"> 1000 µM"

Attention now shifts to the item below.
**Q:** Fill blank: measured EC50 of the compound NC(Cc1c(OCc2ccccc2)noc1C(=O)O)C(=O)O (stereo not given) is ____.
**A:** > 1000 µM

These data points were gathered from ChEMBL document CHEMBL1133558.
